# Target Or System: T1, human GIP receptor (human, UniProt P48546 22-466)
# T1 sequence (looked up): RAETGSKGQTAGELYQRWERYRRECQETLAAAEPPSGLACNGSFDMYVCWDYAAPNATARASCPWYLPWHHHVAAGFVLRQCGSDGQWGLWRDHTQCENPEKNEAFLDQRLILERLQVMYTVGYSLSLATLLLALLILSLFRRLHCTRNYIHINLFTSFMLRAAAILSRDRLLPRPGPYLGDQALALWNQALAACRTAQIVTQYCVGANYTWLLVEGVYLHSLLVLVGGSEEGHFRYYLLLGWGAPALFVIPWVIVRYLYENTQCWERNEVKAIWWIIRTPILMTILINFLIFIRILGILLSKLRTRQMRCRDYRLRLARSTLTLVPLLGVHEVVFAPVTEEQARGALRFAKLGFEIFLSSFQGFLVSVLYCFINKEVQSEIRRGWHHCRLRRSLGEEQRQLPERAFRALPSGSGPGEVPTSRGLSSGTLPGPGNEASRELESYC
# Experiment Notes: cell-based or functional assay
Quantity Name: fold (EC50 vs native GIP) (fold)
Report as a plain number; the unit fold is understood.

Below are worked cases with known answers.
[[record]]
binder = "HADGTFISEYSTILDNLAARDFINWLIQTKITD [GIP-GLP-2 co-agonist 15]"
observed_measurement = 36

[[record]]
binder = "HAEGTFISDYSTILDNLAARDFVNWLLAQKITD [GIP-GLP-2 co-agonist 9]"
observed_measurement = 36


Now consider the entry below.
INPUT: Bench note: what fold (EC50 vs native GIP) did HADGTFISDYSTILDNLAARDFINWLIQTKITD [GIP-GLP-2 co-agonist 3] show?
OUTPUT: 1.2
